appliedConditions: in 1,4-dioxane, 318.15 K
observable: solubility (mole fraction)

>>> result("C=CC(=O)NC(C)(C)CS(=O)(=O)O")
0.00139

* * *

appliedConditions: in acetone, 323.15 K
observable: solubility (mole fraction)

>>> result("C=CC(=O)NC(C)(C)CS(=O)(=O)O")
0.0205

* * *

appliedConditions: in ethanol, 318.15 K
observable: solubility (mole fraction)

>>> recordednumber("C=CC(=O)NC(C)(C)CS(=O)(=O)O")
0.0189

* * *

appliedConditions: in methanol, 318.15 K
observable: solubility (mole fraction)

>>> result("C=CC(=O)NC(C)(C)CS(=O)(=O)O")
0.0268

All values here come from BigSolDB 2.1.
